# Test system: U251 CNS
# ASSAY REMARKS: NCI-60 one-dose screen, 48 h (100 = growth as untreated, 0 = no growth, -100 = all killed)
# REPORTED CONDITIONS: 10 µM unless noted
This is part of a sample that, as a whole, favours compounds with a hit. Of some 83,000 tested, about 20% had one in any assay.
Parameter growth: see the listing below.
State just the number; it will be interpreted in %.

As a guide, the following entries are already answered.
compound=CCN(CC)CCCNc1cc(OC)cc2cccnc12 measure=growth reported_result=94.8
compound=COc1cc(OCc2cccc(-c3ccc4c(c3)OCCO4)c2C)cc(OC)c1C=O measure=growth reported_result=85.6
compound=O=C1Nc2ccccc2/C1=C/c1cccn1CCCCCCn1c2ccccc2c(=O)c2ccccc21 measure=growth reported_result=92.4
compound=COc1cccc2cc(N(C)c3ncnc4ccccc34)ccc12 measure=growth reported_result=11

Param item = `COC1=C(OC)C(=O)C(CCCCCCCCCCO)=C(C)C1=O` ; retrieve measured growth. 58.3

Reported growth, compound `[2H]C([2H])([2H])Oc1ccc(/C=C/C(=O)/C=C(/C=C/c2ccc(OC([2H])([2H])[2H])c(OC([2H])([2H])[2H])c2OC([2H])([2H])[2H])OB(F)F)c(OC([2H])([2H])[2H])c1OC([2H])([2H])[2H]` : ____ 47.7

Which growth is listed for `Oc1cccc2c1NCCC2` ? 14.7

Quick one: growth of `CCCCCCCCNc1ncnc2c1ncn2Cc1nnc2c3ccccc3c(Cl)nn12` ? 44.8

Name the recorded growth for `Cn1cc(-c2ccc3c(Nc4cccc(NC(=O)Nc5cccc(F)c5)c4)ncnc3c2)cn1` . 28.4

Entry under review: `COc1cc(OC)cc(C(=O)Nc2cnc(Nc3ccc(N4CCOCC4)nc3)nc2Oc2ccc(C(F)(F)F)cc2)c1` . Reported growth? 65.6

Given the entry CSc1nc(N)c2c(n1)NC(c1ccccc1)C1CCc3ccccc3C1=N2 (stereo not given) , report its measured growth. 68.2

I have this compound here, `CN(C)C(=S)NN=C(c1ccccn1)c1ccccn1` , and I need its recorded growth. 18.1

* * *

# Tested on: SK-MEL-28 melanoma
# ASSAY REMARKS: NCI-60 one-dose screen, 48 h (100 = growth as untreated, 0 = no growth, -100 = all killed)
# REPORTED CONDITIONS: 10 µM unless noted
About 83,000 compounds went through this panel and 20% of them were active in at least one assay; those are over-represented in the sample as a whole.
For each record, check the reported growth: if it is below 90% write Satisfied, else write Not satisfied.

compound=CC(=O)c1ccc(Nc2nccc(-c3ccc(Cl)cc3)n2)cc1 tested_on="SK-MEL-28 melanoma" class_assignment="Not satisfied"
compound=Cc1ccc(-c2nc(C#N)c(S(=O)(=O)n3nc(C)cc3N)o2)cc1 tested_on="SK-MEL-28 melanoma" class_assignment="Not satisfied"
compound="COc1cccc(C2C(C#N)=C(N)Oc3c2ccc2ccccc32)c1 (centres undefined)" tested_on="SK-MEL-28 melanoma" class_assignment=Satisfied

Item `O=C1/C(=C/c2ccc(-c3ccc(Cl)cc3)o2)SC(=S)N1CCc1ccc(O)cc1` : growth beneath 90%, strictly? Not satisfied

Is 90% strictly greater than the compound's reported growth? compound: `C#Cc1ccc(NC(=O)Cc2ccc(/C=C/C(=O)c3nccn3C)cc2)cc1` Not satisfied

Determine if `COC1=C(OC)C(=O)C(CCCCCCCCCCO)=C(C)C1=O` shows growth strictly lower than 90%. Not satisfied

growth under 90%? Item: `CCNc1nc(-c2ccc(Cl)c(OC)c2)c(-c2ccnc(NCCNS(=O)(=O)c3ccc(Cl)cc3)n2)s1` Satisfied

Strictly below 90%: is that where growth of `CCCCCCCCOC(=O)c1c(C)[nH]c(/C=C2\N=C(c3ccc[nH]3)C=C2OC)c1C` sits? Satisfied

I wonder whether `CC(C)(C)[C@H](OCc1cn([C@H]2C[C@@H](O)[C@@H](CO)O2)c(=O)[nH]c1=O)c1ccc(C#Cc2ccccc2)cc1[N+](=O)[O-]` has growth below 90%. Can you tell? Not satisfied
